These entries and their values trace back to patent US20110142868A1.

SYSTEM: recombinant human PAD4 (human, UniProt Q9UM07 1-663)
Sequence (Q9UM07 whole entry): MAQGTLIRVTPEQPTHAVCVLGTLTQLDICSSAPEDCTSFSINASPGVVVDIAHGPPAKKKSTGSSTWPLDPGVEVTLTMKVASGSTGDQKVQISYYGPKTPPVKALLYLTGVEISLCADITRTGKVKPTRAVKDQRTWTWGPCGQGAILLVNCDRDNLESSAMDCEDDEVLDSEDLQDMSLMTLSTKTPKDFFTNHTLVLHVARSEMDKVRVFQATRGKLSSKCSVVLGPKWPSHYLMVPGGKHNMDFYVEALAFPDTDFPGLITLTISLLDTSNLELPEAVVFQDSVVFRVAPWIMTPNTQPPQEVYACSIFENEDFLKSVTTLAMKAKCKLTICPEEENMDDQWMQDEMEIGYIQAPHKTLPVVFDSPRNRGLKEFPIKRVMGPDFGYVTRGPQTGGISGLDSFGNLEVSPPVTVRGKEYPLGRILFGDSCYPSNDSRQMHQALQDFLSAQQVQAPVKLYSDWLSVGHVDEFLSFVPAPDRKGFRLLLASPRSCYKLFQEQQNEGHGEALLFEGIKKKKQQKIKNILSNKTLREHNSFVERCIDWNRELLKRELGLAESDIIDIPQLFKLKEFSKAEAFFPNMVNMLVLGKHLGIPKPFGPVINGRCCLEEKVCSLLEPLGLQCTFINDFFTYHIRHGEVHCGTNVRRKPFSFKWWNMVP
MEASUREMENT_PROTOCOL: cell-based or functional assay
Square brackets hold non-standard residues; d marks the D form. * marks the point of attachment. Orn(fluoroacetimidoyl) = N=C(CF)NCCC[C@H](N)C(=O)O; 2Naphthylsulfonyl = O=S(=O)(c1ccc2ccccc2c1)*; AEEA = NCCOCCOCC(=O)O
ASSAY_METRIC: Inhibition of PAD4: value at 20 µM inhibitor (0 µM: 67) (%)
Numbers only, in %.

Ac-KWH[Orn(fluoroacetimidoyl)]DFF-NH2 (SMILES CC(=O)N[C@@H](CCCCN)C(=O)N[C@@H](Cc1c[nH]c2ccccc12)C(=O)N[C@@H](Cc1c[nH]cn1)C(=O)N[C@@H](CCCNC(=N)CF)C(=O)N[C@@H](CC(=O)O)C(=O)N[C@@H](Cc1ccccc1)C(=O)N[C@@H](Cc1ccccc1)C(N)=O) [0748-09FA]
38
2Naphthylsulfonyl-KWH[Orn(fluoroacetimidoyl)]DFF-NH2 (SMILES N=C(CF)NCCC[C@H](NC(=O)[C@H](Cc1c[nH]cn1)NC(=O)[C@H](Cc1c[nH]c2ccccc12)NC(=O)[C@H](CCCCN)NS(=O)(=O)c1ccc2ccccc2c1)C(=O)N[C@@H](CC(=O)O)C(=O)N[C@@H](Cc1ccccc1)C(=O)N[C@@H](Cc1ccccc1)C(N)=O) [0837-30FA]
24
Ac-KWH[Orn(fluoroacetimidoyl)]DFF[AEEA]-NH2 (SMILES CC(=O)N[C@@H](CCCCN)C(=O)N[C@@H](Cc1c[nH]c2ccccc12)C(=O)N[C@@H](Cc1c[nH]cn1)C(=O)N[C@@H](CCCNC(=N)CF)C(=O)N[C@@H](CC(=O)O)C(=O)N[C@@H](Cc1ccccc1)C(=O)N[C@@H](Cc1ccccc1)C(=O)NCCOCCOCC(N)=O) [0837-14FA]
39

Next:
Exercise: Reported Inhibition of PAD4: value at 20 µM inhibitor (0 µM: 67) for 2Naphthylsulfonyl-KWH[Orn(fluoroacetimidoyl)]DFF[AEEA]-NH2 (SMILES N=C(CF)NCCC[C@H](NC(=O)[C@H](Cc1c[nH]cn1)NC(=O)[C@H](Cc1c[nH]c2ccccc12)NC(=O)[C@H](CCCCN)NS(=O)(=O)c1ccc2ccccc2c1)C(=O)N[C@@H](CC(=O)O)C(=O)N[C@@H](Cc1ccccc1)C(=O)N[C@@H](Cc1ccccc1)C(=O)NCCOCCOCC(N)=O) [0837-28FA] : what is it?
Solution: 23
